Numbers sourced from paper PMC5540273.

Test system: CSNK1A1L
assay.conditions: concentration: 1 μM, replicates: in singlicate; n = 1;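 further: KINOMEscan kinase panel screen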

{"columns": ["molecule", "%Inh [%]"],
 "data": [
  ["Cc1nnc(-c2ccc3ncc(-c4ccc(S(C)=O)cc4)n3c2)o1 (centres unmarked)", 9],
  ["Nc1nc(-c2ccc3c(N)n[nH]c3c2)cc(N2CCCC2)n1", 0],
  ["COc1ccc(CNC(=O)NC2CCN(c3ccnc(Nc4ccc(OC)cc4)n3)C2)cc1 (centres unmarked)", 5],
  ["O=C(NCCNc1ccnc(Nc2ccc(F)cc2)n1)c1cc2ccccc2s1", 9],
  ["COc1cc2c(cc1OCCN1CCN(C)CC1)ncc1c3ccc(C#N)cc3[nH]c21", 0]
]}

###

List of %Inh values.
Tested on: p38-beta
Construct: gene MAPK11
assay.conditions: concentration: 1 μM, replicates: in singlicate; n = 1

{"columns": ["compound", "units.text", "%Inh"],
 "data": [
  ["Cc1nnc(-c2ccc3ncc(-c4ccc(S(C)=O)cc4)n3c2)o1 (centres unmarked)", "%", 1],
  ["Cl.Cl.Cl.Fc1ccc(-c2ncn(C3CCNCC3)c2-c2ccnc(Nc3ccccc3)n2)cc1", "%", 100],
  ["N#Cc1c(N2CCOCC2)sc(-c2ccn[nH]2)c1-c1ccc(Cl)cc1", "%", 14],
  ["O=C(NCCNc1ccnc(Nc2ccc(F)cc2)n1)Nc1ccccc1F", "%", 0],
  ["Cc1cccc(-c2nc(-c3ccc(S(C)(=O)=O)cc3)sc2-c2ccncc2)c1", "%", 0]
]}

###

Test system: MEK4
Construct: gene MAP2K4
assay.conditions: concentration: 1 μM, replicates: in singlicate; n = 1
Cut-off 20% on %Inh, inclusive. At or above means 1.0; below means 0.0.

{"columns": ["molecule", "discrete.label"],
 "data": [
  ["Cl.Nc1ncnc2occ(-c3ccc(NC(=O)Nc4cc(C(F)(F)F)ccc4F)cc3)c12", 1.0],
  ["COc1cc(Nc2nccc(N3CCC(NC(=O)c4cccc(NC(C)=O)c4)C3)n2)cc(OC)c1OC (stereo not drawn)", 0.0],
  ["O=C(NCCNc1ccnc(Nc2ccc(F)cc2)n1)c1cc2ccccc2s1", 1.0],
  ["NS(=O)(=O)CCc1cccc(Nc2nccc(-c3c(-c4cccc(NC(=O)c5c(F)cccc5F)c4)nn4ccccc34)n2)c1", 1.0],
  ["CCn1cnc2c(N)ncnc21", 0.0],
  ["CC(=O)Nc1ccc(COc2ccc(Nc3ccnc4cc(-c5ccccn5)ccc34)cc2)cc1.Cl", 0.0],
  ["Nc1nccc(-c2c(-c3ccc(F)cc3)ncn2C2CCN(CC(F)(F)F)CC2)n1", 0.0],
  ["COc1cc2ncn(-c3cc(OCc4sccc4Cl)c(C(N)=O)s3)c2cc1OC", 0.0],
  ["Cl.Oc1cccc(Nc2ccnc3cc(-c4ccncc4)ccc23)c1", 0.0]
]}

###

Tested on: BMX
assay.conditions: concentration: 1 μM, replicates: in singlicate; n = 1
We begin with a simple list: items and their reported %Inh.

{"columns": ["test.smiles", "units.text", "%Inh"],
 "data": [
  ["Fc1ccc(-c2ncn(CCCN3CCOCC3)c2-c2cccnc2)cc1", "%", 0],
  ["COc1ccc(S(=O)(=O)NC2CCN(c3cc(C)nc(Nc4cccc(C#N)c4)n3)CC2)cc1.O=C(O)C(F)(F)F", "%", 3],
  ["Cc1ccc(C(=O)NCC(N)=O)cc1-n1c(C)cc(OCc2ccc(F)cc2F)c(Br)c1=O", "%", 24],
  ["O=c1cc(N2CCOCC2)nc2n(Cc3cccc(C(F)(F)F)c3)ccn12", "%", 20]
]}

###

Tested on: INSR
assay.conditions: concentration: 1 μM, replicates: in singlicate; n = 1

{"columns": ["compound", "units.text", "%Inh"],
 "data": [
  ["COc1ccc(CNC(=O)NC2CCN(c3ccnc(Nc4ccc(OC)cc4)n3)C2)cc1 (stereo not drawn)", "%", 0],
  ["CN1c2ccc(NCc3ccc(F)cc3)cc2-c2c(cnn2C)S1(=O)=O", "%", 0],
  ["Fc1ccc(-c2ncn(CCCN3CCOCC3)c2-c2ccccn2)cc1", "%", 0],
  ["Cc1nnc(-c2ccc3ncc(-c4ccc(S(C)=O)cc4)n3c2)o1 (stereo not drawn)", "%", 2],
  ["CN1c2ccc(CNc3ccc(F)cc3)cc2-c2c(cnn2C)S1(=O)=O", "%", 0],
  ["COC(=O)Nc1nc2cc(Oc3ccc(NC(=O)Nc4cc(F)ccc4F)cc3)ccc2[nH]1.Cl", "%", 0],
  ["Cc1nnc(-c2ccc3occ(-c4ccc(C(C)O)cc4)c3c2)o1 (stereo not drawn)", "%", 11],
  ["CC(C)(C)n1cnc2c(N)ncnc21", "%", 0],
  ["Cc1cccc(Cn2ccn3c(=O)cc(N4CCOCC4)nc23)c1", "%", 9]
]}

###

Tested on: BMX
assay.conditions: concentration: 1 μM, replicates: in singlicate; n = 1
Measured %Inh accompanies every entry in the list below.

{"columns": ["compound", "units.text", "%Inh"],
 "data": [
  ["Cc1nnc(-c2ccc(C)c(-c3ccc(C(=O)Nc4ccc(NS(C)(=O)=O)cc4)cc3)c2)o1 [GW702865]", "%", 16],
  ["Nc1nccc(-c2c(-c3ccc(F)cc3)ncn2C2CCN(CC(F)(F)F)CC2)n1 [SB-236560]", "%", 0],
  ["COc1ccc(COc2cc(-n3cnc4ccccc43)sc2C(N)=O)cc1 [GSK1024304]", "%", 0],
  ["Cc1cccc(-c2nc(-c3ccc(S(C)(=O)=O)cc3)sc2-c2ccncc2)c1", "%", 0],
  ["O=C(Nc1cccc(-c2nn3ncccc3c2-c2ccnc(Nc3cccc(C(F)(F)F)c3)n2)c1)c1c(F)cccc1F [GSK299495]", "%", 72],
  ["CN1c2ccc(NCc3ccc(F)cc3)cc2-c2c(cnn2C)S1(=O)=O", "%", 0],
  ["O=C(c1ccc(-c2cc(-c3c[nH]nc3-c3ccccn3)ccn2)cc1)N1CCOCC1 [GW812171]", "%", 0],
  ["COc1cc2ncn(-c3cc(OCc4sccc4Cl)c(C(N)=O)s3)c2cc1OC [GSK448459]", "%", 0]
]}

###

Catalogue of %Inh readings, one per entry.
Test system: PIP5K2B
assay.conditions: concentration: 1 μM, replicates: in singlicate; n = 1

{"columns": ["molecule", "%Inh / %"],
 "data": [
  ["Cc1nnc(-c2ccc3occ(-c4ccc(C(C)O)cc4)c3c2)o1 (stereo not drawn)", 27],
  ["O=c1cc(N2CCOCC2)nc2n(Cc3cccc4ccccc34)ccn12", 40],
  ["O=C(NCCNc1ccnc(Nc2ccc(F)cc2)n1)Nc1ccccc1F", 0],
  ["COc1cc2ncn(-c3cc(OCc4sccc4Cl)c(C(N)=O)s3)c2cc1OC", 20],
  ["Cc1nnc(-c2ccc(C)c(-c3ccc(C(=O)Nc4ccc(NS(C)(=O)=O)cc4)cc3)c2)o1", 17],
  ["CN1c2ccc(NCc3ccc(F)cc3)cc2-c2c(cnn2C)S1(=O)=O", 0],
  ["Cc1nnc(-c2ccc3ncc(-c4ccc(S(C)=O)cc4)n3c2)o1 (stereo not drawn)", 39],
  ["NS(=O)(=O)c1cccc(-c2ccc3nccc(-c4cccc(S(N)(=O)=O)c4)c3c2)c1", 0],
  ["CCc1nc(-c2cccc(C)c2)c(-c2ccnc(NCc3ccccc3)c2)s1", 38]
]}

###

System: TRKC
Construct: gene NTRK3
assay.conditions: concentration: 1 μM, replicates: in singlicate; n = 1
observable: %Inh

{"columns": ["compound", "observed.result"],
 "data": [
  ["Cc1nnc(-c2ccc3ncc(-c4ccc(S(C)=O)cc4)n3c2)o1 (centres unmarked)", "36%"],
  ["N#Cc1ccc(-c2cc(-c3c[nH]nc3-c3ccccn3)ccn2)cc1", "16%"],
  ["CC(C)Oc1ccc2c(-c3ccnc(Nc4ccc(N5CCN(C)CC5)cc4)n3)cnn2n1", "42%"],
  ["O=c1cc(N2CCOCC2)nc2n(Cc3cccc(F)c3)ccn12", "6%"],
  ["C[C@@H](Oc1cc(-n2cnc3ccc(NC(=O)NC(C)(C)C)cc32)sc1C(N)=O)c1ccccc1Cl", "0%"],
  ["N#Cc1c(N2CCOCC2)sc(-c2ccn[nH]2)c1-c1ccc(Cl)cc1", "8%"],
  ["COc1cc2c(cc1OCCN1CCN(C)CC1)ncc1c3ccc(C#N)cc3[nH]c21", "83%"],
  ["O=C(NCCNc1ccnc(Nc2ccc(F)cc2)n1)Nc1ccccc1F", "13%"],
  ["Fc1ccc(-c2ncn(CCCN3CCOCC3)c2-c2ccccn2)cc1", "0%"],
  ["CCc1nc(-c2cccc(C)c2)c(-c2ccnc(NCc3ccccc3)c2)s1", "0%"],
  ["COc1ccc(COc2cc(-n3cnc4ccccc43)sc2C(N)=O)cc1", "19%"],
  ["Fc1ccc(-c2nn3c(OCC(F)(F)F)cccc3c2-c2ccncc2)cc1", "25%"],
  ["Cc1cn2c(=O)cc(N3CCOCC3)nc2n1Cc1cccc(Cl)c1Cl", "0%"],
  ["NS(=O)(=O)c1cccc(-c2ccc3ncc(N4CCOCC4)nc3c2)c1", "5%"]
]}
